For each record, write down the corresponding CFTR Activity.
target: ΔF508 mutant CFTR (Homo sapiens, UniProt P13569, DEL508-508); construct: expressed in transfected cells; host or cells: Fischer rat thyroid (FRT) cells; test: Fluorescence (YFP halide quenching) assay of ΔF508 mutant CFTR activity in FRT cells; assay type: cell-based; design: key: fold of mean activity with forskolin alone (I− quenching rate); conditions: FRT cells expressing ΔF508-CFTR and YFP-H148Q/I152L, rescued at 27° C. 20-24 h; forskolin 20 μM + test compound 20 μM for 20 min; I− influx rate normalized to forskolin alone
Sequence (P13569 with tags, fused parts or gaps DEL508-508): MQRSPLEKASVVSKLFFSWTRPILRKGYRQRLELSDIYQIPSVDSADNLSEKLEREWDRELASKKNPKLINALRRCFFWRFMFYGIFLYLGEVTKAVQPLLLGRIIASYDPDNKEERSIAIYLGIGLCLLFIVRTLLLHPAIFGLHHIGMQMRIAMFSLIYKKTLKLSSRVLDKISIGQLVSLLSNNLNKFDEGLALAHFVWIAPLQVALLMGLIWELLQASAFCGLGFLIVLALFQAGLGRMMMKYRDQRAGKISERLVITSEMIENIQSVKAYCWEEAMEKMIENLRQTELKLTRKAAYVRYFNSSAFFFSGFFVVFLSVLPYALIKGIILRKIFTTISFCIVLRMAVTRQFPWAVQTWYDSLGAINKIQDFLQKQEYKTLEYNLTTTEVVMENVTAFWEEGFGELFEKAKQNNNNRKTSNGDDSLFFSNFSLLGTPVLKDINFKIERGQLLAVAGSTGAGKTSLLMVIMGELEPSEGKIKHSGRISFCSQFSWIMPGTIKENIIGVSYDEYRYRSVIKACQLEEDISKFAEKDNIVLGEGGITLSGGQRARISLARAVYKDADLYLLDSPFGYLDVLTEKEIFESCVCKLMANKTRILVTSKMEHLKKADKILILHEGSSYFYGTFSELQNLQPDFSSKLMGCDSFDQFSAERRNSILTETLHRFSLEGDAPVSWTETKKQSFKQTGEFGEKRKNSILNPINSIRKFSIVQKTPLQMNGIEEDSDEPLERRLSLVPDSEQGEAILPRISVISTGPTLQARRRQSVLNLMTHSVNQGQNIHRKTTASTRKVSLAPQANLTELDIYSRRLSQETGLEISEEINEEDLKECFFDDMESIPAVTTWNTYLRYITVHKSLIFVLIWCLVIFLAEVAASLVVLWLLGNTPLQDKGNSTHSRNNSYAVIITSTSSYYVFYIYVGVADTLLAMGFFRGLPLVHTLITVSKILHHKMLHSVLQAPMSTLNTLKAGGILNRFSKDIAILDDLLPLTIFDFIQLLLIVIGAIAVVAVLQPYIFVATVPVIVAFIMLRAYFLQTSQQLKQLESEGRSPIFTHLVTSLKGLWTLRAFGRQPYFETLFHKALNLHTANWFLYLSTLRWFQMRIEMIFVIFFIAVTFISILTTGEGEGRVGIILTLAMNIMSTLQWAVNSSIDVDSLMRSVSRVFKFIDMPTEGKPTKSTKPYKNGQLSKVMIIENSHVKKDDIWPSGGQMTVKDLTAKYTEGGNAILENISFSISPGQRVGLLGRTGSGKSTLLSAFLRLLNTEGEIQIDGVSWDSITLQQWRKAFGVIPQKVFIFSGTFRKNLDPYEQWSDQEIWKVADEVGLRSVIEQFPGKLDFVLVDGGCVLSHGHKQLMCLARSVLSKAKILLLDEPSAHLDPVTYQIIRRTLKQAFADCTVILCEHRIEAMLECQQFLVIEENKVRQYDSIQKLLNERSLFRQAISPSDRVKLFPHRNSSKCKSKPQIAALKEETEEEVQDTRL
Output: the number by itself.

Asked: # returns recorded CFTR Activity (system: ΔF508 mutant CFTR (Homo sapiens, UniProt P13569, DEL508-508)) for Cl.Nc1cc(C(F)(F)F)c(-c2ccccc2)nc1C(=O)Nc1cncnc1OC1CCNC1 (centres unmarked)
Given back: 2.4

Asked: # returns recorded CFTR Activity (system: ΔF508 mutant CFTR (Homo sapiens, UniProt P13569, DEL508-508)) for Cl.Nc1cc(F)c(-c2c(F)cccc2F)nc1C(=O)Nc1cncnc1OC1CCC(N)CC1 (centres unmarked)
Given back: 4.4

Asked: # returns recorded CFTR Activity (system: ΔF508 mutant CFTR (Homo sapiens, UniProt P13569, DEL508-508)) for `Cl.NCCCCOc1ncncc1NC(=O)c1nc(-c2c(F)cccc2F)c(F)cc1N`
Given back: 2.4

Asked: # returns recorded CFTR Activity (system: ΔF508 mutant CFTR (Homo sapiens, UniProt P13569, DEL508-508)) for Cl.NCC(CO)COc1ncncc1NC(=O)c1ccc(F)c(-c2c(F)cccc2F)n1 (centres unmarked)
Given back: 2.5

Asked: # returns recorded CFTR Activity (system: ΔF508 mutant CFTR (Homo sapiens, UniProt P13569, DEL508-508)) for Cl.NCC(CCl)Oc1ncncc1NC(=O)c1nc(-c2c(F)cccc2F)c(F)cc1N (centres unmarked)
Given back: 2.2

Asked: # returns recorded CFTR Activity (system: ΔF508 mutant CFTR (Homo sapiens, UniProt P13569, DEL508-508)) for Cl.NCC(CCl)COc1ncncc1NC(=O)c1ccc(F)c(-c2c(F)cccc2F)n1 (centres unmarked)
Given back: 1.5

Asked: # returns recorded CFTR Activity (system: ΔF508 mutant CFTR (Homo sapiens, UniProt P13569, DEL508-508)) for O=C(Nc1cncnc1OCCC(O)CO)c1ccc(F)c(-c2c(F)cccc2F)n1 (centres unmarked)
Given back: 0.05

Asked: # returns recorded CFTR Activity (system: ΔF508 mutant CFTR (Homo sapiens, UniProt P13569, DEL508-508)) for Cl.NC1CCCC(Oc2ncncc2NC(=O)c2ccc(C(F)(F)F)c(-c3c(F)cccc3F)n2)C1 (centres unmarked)
Given back: 4.8

Asked: # returns recorded CFTR Activity (system: ΔF508 mutant CFTR (Homo sapiens, UniProt P13569, DEL508-508)) for `O=C(Nc1cncnc1OCCCO)c1ccc(F)c(-c2c(F)cccc2F)n1`
Given back: 0.2

Asked: # returns recorded CFTR Activity (system: ΔF508 mutant CFTR (Homo sapiens, UniProt P13569, DEL508-508)) for Cl.O=C(Nc1cncnc1OCC1CCNC1)c1ccc(F)c(-c2c(F)cccc2F)n1 (centres unmarked)
Given back: 0.6

Asked: # returns recorded CFTR Activity (system: ΔF508 mutant CFTR (Homo sapiens, UniProt P13569, DEL508-508)) for Cl.NCC(CCl)COc1ncncc1NC(=O)c1nc(-c2c(F)cccc2F)c(F)cc1N (centres unmarked)
Given back: 2.0

Asked: # returns recorded CFTR Activity (system: ΔF508 mutant CFTR (Homo sapiens, UniProt P13569, DEL508-508)) for Cl.NCC(CO)COc1ncncc1NC(=O)c1nc(-c2c(F)cccc2F)c(C(F)(F)F)cc1N (centres unmarked)
Given back: 3.0

Asked: # returns recorded CFTR Activity (system: ΔF508 mutant CFTR (Homo sapiens, UniProt P13569, DEL508-508)) for `Cl.O=C(Nc1cncnc1OC1CCNCC1)c1ccc(C(F)(F)F)c(-c2c(F)cccc2F)n1`
Given back: 2.7

Asked: # returns recorded CFTR Activity (system: ΔF508 mutant CFTR (Homo sapiens, UniProt P13569, DEL508-508)) for `Cl.O=C(Nc1cncnc1OCC1CCNCC1)c1ccc(C(F)(F)F)c(-c2c(F)cccc2F)n1`
Given back: 1.3

Asked: # returns recorded CFTR Activity (system: ΔF508 mutant CFTR (Homo sapiens, UniProt P13569, DEL508-508)) for Cl.Nc1cc(F)c(-c2c(F)cccc2F)nc1C(=O)Nc1cncnc1OC1CCNC1 (centres unmarked)
Given back: 1.9

Asked: # returns recorded CFTR Activity (system: ΔF508 mutant CFTR (Homo sapiens, UniProt P13569, DEL508-508)) for `Cl.Nc1cc(C(F)(F)F)c(-c2c(F)cccc2F)nc1C(=O)Nc1cncnc1OCC1CNC1`
Given back: 2.9

Asked: # returns recorded CFTR Activity (system: ΔF508 mutant CFTR (Homo sapiens, UniProt P13569, DEL508-508)) for Cl.NCC(CO)COc1ncncc1NC(=O)c1nc(-c2c(F)cccc2F)c(F)cc1N (centres unmarked)
Given back: 2.1

Asked: # returns recorded CFTR Activity (system: ΔF508 mutant CFTR (Homo sapiens, UniProt P13569, DEL508-508)) for `O=C(Nc1cncnc1OCCCCO)c1ccc(F)c(-c2c(F)cccc2F)n1`
Given back: 0.3

Asked: # returns recorded CFTR Activity (system: ΔF508 mutant CFTR (Homo sapiens, UniProt P13569, DEL508-508)) for `Cl.Nc1cc(F)c(-c2c(F)cccc2F)nc1C(=O)Nc1cncnc1OCC1CCNCC1`
Given back: 2.2

Asked: # returns recorded CFTR Activity (system: ΔF508 mutant CFTR (Homo sapiens, UniProt P13569, DEL508-508)) for Cl.O=C(Nc1cncnc1OC1CCCNCC1)c1nc(-c2c(F)cccc2F)ccc1F (centres unmarked)
Given back: 1.9
